Tested on: Mycobacterium kansasii
ASSAY_COMMENT: Antimycobacterial activity against Mycobacterium kansasii isolate 6509/96 after 14 days
Format: functional
ASSAY_CONDITIONS: isolate 6509/96, 336 h

MOL | TARGET_SYSTEM | MIC
O=C(N[C@H](Cc1ccccc1)C(=O)Oc1ccc(Cl)cc1C(=O)Nc1ccc(Cl)cc1)OCc1ccccc1 | Mycobacterium kansasii | 8 µM
CC(C)[C@@H](NC(=O)OCc1ccccc1)C(=O)Oc1cc(Cl)ccc1C(=O)Nc1ccc(Cl)cc1 | Mycobacterium kansasii | 8 µM
CC(C)[C@@H](NC(=O)OCc1ccccc1)C(=O)Oc1ccc(Cl)cc1C(=O)Nc1ccc(Cl)cc1 | Mycobacterium kansasii | 8 µM
CC(C)[C@@H](NC(=O)OCc1ccccc1)C(=O)Oc1ccc(Cl)cc1C(=O)Nc1ccc(Br)cc1 | Mycobacterium kansasii | 8 µM
C[C@@H](NC(=O)OCc1ccccc1)C(=O)Oc1ccc(Cl)cc1C(=O)Nc1cccc(Cl)c1 | Mycobacterium kansasii | 16 µM
C[C@@H](NC(=O)OCc1ccccc1)C(=O)Oc1ccc(Cl)cc1C(=O)Nc1ccc(Cl)c(Cl)c1 | Mycobacterium kansasii | 8 µM

###

ASSAY_COMMENT: Lipophilicity, log K by HPLC
Type: physicochemical
log K overview
MEASUREMENT_TYPE: log K

MOL | TEST_VALUE
CC(C)[C@H](NC(=O)OCc1ccccc1)C(=O)Oc1ccc(Cl)cc1C(=O)Nc1cccc(Cl)c1 | 0.8972
O=C(N[C@@H](Cc1ccccc1)C(=O)Oc1ccc(Cl)cc1C(=O)Nc1ccc(Cl)cc1)OCc1ccccc1 | 1.0971
CC(C)[C@@H](NC(=O)OCc1ccccc1)C(=O)Oc1ccc(Cl)cc1C(=O)Nc1ccc(Br)cc1 | 0.9805
C[C@@H](NC(=O)OCc1ccccc1)C(=O)Oc1ccc(Cl)cc1C(=O)Nc1ccc(Cl)cc1 | 0.7294
C[C@@H](NC(=O)OCc1ccccc1)C(=O)Oc1cc(Cl)ccc1C(=O)Nc1ccc(Cl)cc1 | 0.6334
O=C(N[C@@H](Cc1ccccc1)C(=O)Oc1cc(Cl)ccc1C(=O)Nc1ccc(Cl)cc1)OCc1ccccc1 | 1.0304
O=C(N[C@@H](Cc1ccccc1)C(=O)Oc1ccc(Cl)cc1C(=O)Nc1ccc(Br)cc1)OCc1ccccc1 | 1.1258
CC(C)[C@H](NC(=O)OCc1ccccc1)C(=O)Oc1cc(Cl)ccc1C(=O)Nc1ccc(Cl)cc1 | 0.8804
CC(C)[C@H](NC(=O)OCc1ccccc1)C(=O)Oc1ccc(Cl)cc1C(=O)Nc1ccc(Cl)c(Cl)c1 | 1.1567
